# ASSAY TARGET: full length SGK1 (Homo sapiens, UniProt O00141)
# Construct: 125 μM full length SGK1 (Life Technologies Part #PR7358A); purchased Life Technologies PR7358A
# Sequence (O00141 whole entry): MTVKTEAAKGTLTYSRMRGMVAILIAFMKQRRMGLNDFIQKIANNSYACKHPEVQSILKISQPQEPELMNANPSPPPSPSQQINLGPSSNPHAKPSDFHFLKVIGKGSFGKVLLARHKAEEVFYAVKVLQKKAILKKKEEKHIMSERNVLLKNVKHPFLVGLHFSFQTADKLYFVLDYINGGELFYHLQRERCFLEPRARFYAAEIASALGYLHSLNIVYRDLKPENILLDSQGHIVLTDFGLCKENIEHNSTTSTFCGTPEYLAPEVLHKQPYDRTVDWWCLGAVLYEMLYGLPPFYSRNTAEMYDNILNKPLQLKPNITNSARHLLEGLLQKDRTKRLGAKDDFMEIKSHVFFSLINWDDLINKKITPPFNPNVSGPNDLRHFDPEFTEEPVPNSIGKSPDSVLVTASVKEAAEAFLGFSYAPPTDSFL
# METHOD SUMMARY: SGK1 inhibition Assay A (Caliper LabChip electrophoretic separation of fluorescent peptide substrate and phosphorylated product)
# Format: biochemical
# CONDITIONS USED: Assay A; 20 μM ATP, 40 min incubation; read-out: SGK1 IC50
pIC50: −log10 of the molar value. Structures can show the parent of a compound that is named as a salt.
PROPERTY LABEL: pIC50

1. CN(C)CCOc1c(C(=O)N[C@@H]2CCCN(c3cc(-c4ccnc(C#N)c4)n4ncnc(N)c34)C2)[nH]c2ccccc12 : 7.49
2. COC(=O)N1CC=C(c2cc(N3CCC[C@@H](NC(=O)c4ccc(C(F)F)s4)C3)c3c(N)ncnn23)C1 : 8.52
3. CN1CCC(c2cc(C(F)F)sc2C(=O)N[C@@H]2CCCN(c3cc(-c4ccc(C(N)=O)nc4)n4ncnc(N)c34)C2)C1 (stereo partly shown) : 6.66
4. Nc1ncnn2c(-c3ccc(C(F)F)nc3)cc(N3CCC[C@@H](NC(=O)c4ccc(Cl)s4)C3)c12 [Example 248, TFA] : 8.52
